B1: F1*; the commonest letter at each place (parent)
chain: GAGACCGCAACTGAAAAGTTGTTATCACTTGTCGTAAGACACTTTGGATGGGTTGAAGTTCTGCACGTAGAAGCAAAAGGC

# Variants of: B1
# protocol.text: fraction ligated after 30 min (ligated reads / total reads); higher = more ligase activity
# particulars: with F1*sub RNA substrate (template-directed ligation), 42 °C
Criterion: fraction ligated meeting or surpassing 0.7. Met: Condition met. Not met: Condition not met.

Solved entries (count: 4):
GAGACCGCAACTGAAAAGTTGTTATCACATGTCGTAAGACACTTTGGCTGGGTTGAAGTTCTGCACGTAGAAGCAAAAGGC [T29A A48C] :: Condition met
GAGACCGCAACTGAAAAGTTGTTATCACTTGTCGTAAGACACTTTGAATGGGTTGGAGTTCTGCACGTAGAAGCAAAAGGC [G47A A56G] :: Condition not met
GAGACCGCAACTGAAAAGTTGTTATCACTTGTCGTAAGACCCTTTAGATGGGTTGAAGTTCTGCACGTAGAAGCAAAAGGC [A41C G46A] :: Condition met
GAGACCGCAACTGAAAAGTTGTTATCACTTGTCGTAAGACACTCTGGATGGGTTGACGTTCTGCACGTAGAAGCAAAAGGC [T44C A57C] :: Condition met

Here is another variant to look at.
Decide: fraction ligated of GAGACCGCAACTGAAAAGTTGTTATGACTTATCGTAAGACACTTTGGATGGGTTGAAGTTCTGCACGTAGAAGCAAAAGGC [C26G G31A] >= 0.7?
Condition not met
